Data origin, for the record: patent US20100160454A1

System: Staphylococcus aureus ATCC 25923
test_description: Microbiological challenge testing in BPW broth, graded subculture counts
Assay type: cell-based
reported_conditions: S. aureus, 2.5% (wt/vol), 14 day
Below is a list of entries, each paired with its recorded Grade value.

compound	Grade
OCC1CCCCC1CO (stereo not shown)	0

Attention now shifts to the item below.
Quick note, Grade for `O=C([O-])CN(CCN(CC(=O)[O-])CC(=O)O)CC(=O)O.[Na+].[Na+]` landed at 0.3

---

Recorded Grade, one value per entry.
Test system: Aspergillus niger Wild type
test_description: Microbiological challenge testing in BPW broth, graded subculture counts
Assay type: cell-based
reported_conditions: A. niger, 5.0% (wt/vol), 30 day

Some solved cases for reference:
compound	endpoint_value
OCC1CCCC(CO)C1 (stereo not shown) [1,3-CHDM, 1,3-cyclohexanedimethanol]	4
OCC1CCCCC1CO (stereo not shown) [1,2-CHDM, 1,2-cyclohexanedimethanol]	0
CC1(C)C(O)C(C)(C)C1O (stereo not shown) [TMCBD, 2,2,4,4-tetramethyl-1,3-cyclobutanediol]	0

Observed Grade, Aspergillus niger Wild type, O=C([O-])CN(CCN(CC(=O)[O-])CC(=O)O)CC(=O)O.[Na+].[Na+] [EDTA, Na2EDTA] : 0

CCCCOCCO [EB, 2-butoxyethanol] on Aspergillus niger Wild type gives Grade = 0

The compound OCC1CCC(CO)CC1 (stereo not shown) [1,4-CHDM, 1,4-cyclohexanedimethanol] , when measured on Aspergillus niger Wild type, yielded Grade of 0

# lookup: CC(O)CO (stereo not shown) [PG, propylene glycol] on Aspergillus niger Wild type, Grade = 4
